Provenance of the data: ChEMBL document CHEMBL1139688

experiment: Cmax in C57BL/6 mouse at 20 mg/kg, po; type: ADME, organism-based; parameters: dose 20 mg/kg, route oral; conditions: in vivo
Cmax reference
# unit: nM | format: bare number

• O=C(O)Cc1cccc(-c2noc(-c3ccccc3Cl)c2C(=O)NCCOc2ccc(Cl)cc2Cl)c1 = 5600
• O=C(O)Cc1cccc(-c2noc(-c3ccccc3)c2C(=O)NCCOc2ccc(Cl)cc2Cl)c1 = 5100

Q. Return Cmax for the following compound: "Cc1ccccc1-c1onc(-c2cccc(CC(=O)O)c2)c1C(=O)NCCOc1ccc(Cl)cc1Cl"
A. 1900

* * *

assay: Half life in C57BL/6 mouse at 20 mg/kg, po; type: ADME, organism-based; parameters: dose 20 mg/kg, route oral; details: in vivo
Listing of entries alongside the reported half-life.
Enter your answer as a number in h; do not include the unit.

• O=C(O)Cc1cccc(-c2noc(-c3ccccc3)c2C(=O)NCCOc2ccc(Cl)cc2Cl)c1 = 3.1
• O=C(O)Cc1cccc(-c2noc(-c3ccccc3Cl)c2C(=O)NCCOc2ccc(Cl)cc2Cl)c1 = 1.1

Q. Entry "Cc1ccccc1-c1onc(-c2cccc(CC(=O)O)c2)c1C(=O)NCCOc1ccc(Cl)cc1Cl" needs its half-life filled in; supply it.
A. 1.5

* * *

biological target: Peroxisome proliferator-activated receptor alpha (Homo sapiens); assay: Activity at human PPAR alpha by cell-based transactivation assay
Sequence (Q07869 whole entry): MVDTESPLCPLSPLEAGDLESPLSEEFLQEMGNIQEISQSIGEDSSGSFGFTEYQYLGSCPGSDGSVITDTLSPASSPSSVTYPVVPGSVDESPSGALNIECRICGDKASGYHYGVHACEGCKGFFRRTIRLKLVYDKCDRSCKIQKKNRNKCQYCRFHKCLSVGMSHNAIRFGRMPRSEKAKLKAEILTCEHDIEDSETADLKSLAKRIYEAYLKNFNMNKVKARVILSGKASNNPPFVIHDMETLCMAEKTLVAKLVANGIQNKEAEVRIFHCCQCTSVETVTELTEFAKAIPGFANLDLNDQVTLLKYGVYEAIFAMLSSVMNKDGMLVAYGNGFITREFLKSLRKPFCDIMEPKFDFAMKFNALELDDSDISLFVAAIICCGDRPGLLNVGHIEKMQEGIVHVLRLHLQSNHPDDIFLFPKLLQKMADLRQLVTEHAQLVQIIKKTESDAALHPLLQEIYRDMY
The following compounds are shown together with reported EC50 values.

Some solved cases for reference:
- O=C(O)Cc1ccc(-c2noc(-c3ccccc3)c2C(=O)NCCOc2ccc(Cl)cc2Cl)cc1: > 10 µM
- CC(C)c1onc(-c2cccc(CC(=O)O)c2)c1C(=O)NCCOc1ccc(Cl)cc1Cl: > 10 µM
- COc1ccc(CC(=O)O)cc1-c1noc(-c2ccccc2)c1C(=O)NCCOc1ccc(Cl)cc1Cl: > 10 µM
- O=C(O)CCc1cccc(-c2noc(-c3ccccc3)c2C(=O)NCCOc2ccc(Cl)cc2Cl)c1: > 10 µM
- O=C(O)Cc1cccc(-c2noc(-c3ccccc3)c2C(=O)NCCOc2ccc(Cl)cc2Cl)c1: > 10 µM
- Cc1cc(-c2noc(-c3ccccc3)c2C(=O)NCCOc2ccc(Cl)cc2Cl)ccc1OCC(=O)O: > 10 µM

# context switch: different compound, same EC50
Q. Provide only the value of recorded EC50 for "O=C(O)Cc1cccc(-c2noc(-c3ccco3)c2C(=O)NCCOc2ccc(Cl)cc2Cl)c1"
A. > 10 µM

* * *

target: Peroxisome proliferator-activated receptor delta (Homo sapiens, UniProt Q03181); experiment: Activity at human PPAR delta by cell-based transactivation assay
Sequence (Q03181 whole entry): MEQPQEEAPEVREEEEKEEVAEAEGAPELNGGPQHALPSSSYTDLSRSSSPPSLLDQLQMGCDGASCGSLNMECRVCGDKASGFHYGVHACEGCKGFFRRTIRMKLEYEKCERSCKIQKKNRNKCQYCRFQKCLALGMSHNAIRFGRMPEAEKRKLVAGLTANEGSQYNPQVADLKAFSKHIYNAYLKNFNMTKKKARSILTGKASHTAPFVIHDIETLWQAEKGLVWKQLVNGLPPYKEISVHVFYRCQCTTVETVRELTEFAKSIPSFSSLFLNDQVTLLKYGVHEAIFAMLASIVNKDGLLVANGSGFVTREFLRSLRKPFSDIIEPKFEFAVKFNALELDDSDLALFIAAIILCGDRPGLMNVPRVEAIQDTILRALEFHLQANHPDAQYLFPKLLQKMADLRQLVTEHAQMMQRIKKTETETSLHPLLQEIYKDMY
pEC50 reference
Notebook: values listed as pEC50 are -log10 of the concentration (mol/L).

Completed entries (count: 5):
* O=C(O)CCc1cccc(-c2noc(-c3ccccc3)c2C(=O)NCCOc2ccc(Cl)cc2Cl)c1 | 6.01
* O=C(O)Cc1cccc(-c2noc(-c3ccccc3)c2C(=O)NCCOc2ccc(Cl)cc2Cl)c1 | 7.15
* O=C(O)Cc1cccc(-c2noc(-c3ccccc3Cl)c2C(=O)NCCOc2ccc(Cl)cc2Cl)c1 | 7.22
* O=C(O)Cc1ccc(-c2noc(-c3ccccc3)c2C(=O)NCCOc2ccc(Cl)cc2Cl)cc1 | 6.14
* CC(C)c1onc(-c2cccc(CC(=O)O)c2)c1C(=O)NCCOc1ccc(Cl)cc1Cl | 5.97

Q. Lab note: Peroxisome proliferator-activated receptor delta (Homo sapiens, UniProt Q03181) assay, enter pEC50 for "Cc1cc(-c2noc(-c3ccccc3)c2C(=O)NCCOc2ccc(Cl)cc2Cl)ccc1OCC(=O)O" here
A. 6.70

Q. Please respond with reported pEC50 (system Peroxisome proliferator-activated receptor delta (Homo sapiens, UniProt Q03181)) for "Cc1ccccc1-c1onc(-c2cccc(CC(=O)O)c2)c1C(=O)NCCOc1ccc(Cl)cc1Cl" .
A. 7.30

Q. Check Peroxisome proliferator-activated receptor delta (Homo sapiens, UniProt Q03181) data and give pEC50 for "COc1ccc(CC(=O)O)cc1-c1noc(-c2ccccc2)c1C(=O)NCCOc1ccc(Cl)cc1Cl" .
A. 6.25

Q. Under Peroxisome proliferator-activated receptor delta (Homo sapiens, UniProt Q03181), report pEC50 for "O=C(O)Cc1cccc(-c2noc(-c3ccco3)c2C(=O)NCCOc2ccc(Cl)cc2Cl)c1"
A. 7.05

* * *

assay: Cmax in C57BL/6 mouse at 20 mg/kg, po; type: ADME, organism-based; parameters: dose 20 mg/kg, route oral; details: in vivo
endpoint: Cmax

Sample answers from the record:
- Cc1cc(-c2noc(-c3ccccc3)c2C(=O)NCCOc2ccc(Cl)cc2Cl)ccc1OCC(=O)O: < 300 nM
- O=C(O)Cc1ccc(-c2noc(-c3ccccc3)c2C(=O)NCCOc2ccc(Cl)cc2Cl)c(Cl)c1: < 300 nM

Could you now look at the following molecule, please?
Q. Look up and state reported Cmax for "O=C(O)Cc1cccc(-c2noc(-c3ccco3)c2C(=O)NCCOc2ccc(Cl)cc2Cl)c1"
A. < 300 nM

* * *

experiment: Half life in C57BL/6 mouse at 20 mg/kg, po; assay type: ADME, organism-based; parameters: dose 20 mg/kg, route oral; details: in vivo
Listed below: half-life values for each entry.

* O=C(O)Cc1ccc(-c2noc(-c3ccccc3)c2C(=O)NCCOc2ccc(Cl)cc2Cl)c(Cl)c1 | < 30 min
* Cc1cc(-c2noc(-c3ccccc3)c2C(=O)NCCOc2ccc(Cl)cc2Cl)ccc1OCC(=O)O | < 30 min

Q. Hello, please tell me recorded half-life for this one: "O=C(O)Cc1cccc(-c2noc(-c3ccco3)c2C(=O)NCCOc2ccc(Cl)cc2Cl)c1"
A. < 30 min
